Test: NCI Yeast Anticancer Drug Screen. Data for the rad50 strain (AID 155);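 note: 0% = growth of vehicle-only cultures of the same strain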
Settings: S. cerevisiae rad50 strain growth inhibition; at 50.0 µM; active compounds read high
The panel holds about 79,000 compounds, 15% with a hit somewhere; the sample as a whole holds those more often.
Reported growth inhibition is given for each of the following molecules.
Respond with the bare value in %.

Recorded results for 5 molecules are shown here.
molecule	readoutKind	endpointUnit	measuredResult
Cc1ccc2c(c1)[nH]c(=S)n2C=C1C(=O)CC(C)(C)CC1=O	growth inhibition	%	-40
CC(C)CC1NC(=O)C(C(C)C)NC(=O)CC(C)COC(=O)C(CC(C)C)N(C)C(=O)C(C(C)C)NC(=O)C(C(C)C)OC1=O (configuration not stated)	growth inhibition	%	-8.2
CC(O)CCNC(c1ccccc1)C(O)c1ccccc1 (configuration not stated)	growth inhibition	%	3
CCCC(=O)Nc1cc(C(=O)O)cc([N+](=O)[O-])c1	growth inhibition	%	2.05
[B-][N+]1(C)CC[N+]([B-])(C)CC1 (configuration not stated)	growth inhibition	%	-0.6

Output measured growth inhibition for this item: CCOC(=O)C(C(C)=O)C(NO)C(Cl)(Cl)Cl (configuration not stated)
5.4

Output measured growth inhibition for this item: Cc1c(C)c2cc3ccc(Cl)cc3nc2c2ccccc12
-7.65

Output measured growth inhibition for this item: C=C(Br)CNC(=O)c1ccccc1
7.5

Output measured growth inhibition for this item: c1ccc2c(c1)C1CCCCCC21N1CCOCC1 (configuration not stated)
18

Output measured growth inhibition for this item: OCCCN=C1CCCCC1
-3.4

Output measured growth inhibition for this item: Cc1ccc2c(c1)C=C/C(=C/c1cc[n+](C)c3ccccc13)N2C
-7.95

Output measured growth inhibition for this item: Oc1cccnc1CN1CCOCC1
-3.55
